Target: C-src kinase (Homo sapiens)
Construct: made in house; host or cells: baculovirus-infected insect cells
Sequence (P12931 whole entry): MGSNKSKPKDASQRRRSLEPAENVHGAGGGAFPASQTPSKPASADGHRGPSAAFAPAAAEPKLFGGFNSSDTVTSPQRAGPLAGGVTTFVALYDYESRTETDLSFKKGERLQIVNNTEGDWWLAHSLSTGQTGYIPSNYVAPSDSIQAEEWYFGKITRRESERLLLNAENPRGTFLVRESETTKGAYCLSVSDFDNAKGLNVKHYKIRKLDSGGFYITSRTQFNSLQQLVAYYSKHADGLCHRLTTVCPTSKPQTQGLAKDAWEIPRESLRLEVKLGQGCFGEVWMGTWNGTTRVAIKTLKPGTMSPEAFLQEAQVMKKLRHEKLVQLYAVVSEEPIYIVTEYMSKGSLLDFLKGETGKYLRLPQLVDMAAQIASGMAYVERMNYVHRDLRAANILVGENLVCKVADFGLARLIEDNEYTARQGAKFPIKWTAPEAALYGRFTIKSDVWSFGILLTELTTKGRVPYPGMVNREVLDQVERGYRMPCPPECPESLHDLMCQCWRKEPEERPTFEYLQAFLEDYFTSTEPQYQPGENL
Assay: C-src kinase assay
Assay type: biochemical
Conditions: read-out: Inhibition of Protein Tyrosine Kinases, C-src, IC50
Measure: IC50 (µM)

CN1CCN(CCCNc2ncc3cc(-c4c(Cl)cccc4Cl)c(NC(=O)Nc4ccc(Cl)cc4)nc3n2)CC1 | 0.04

[A] CC(C)NC(=O)Nc1nc2nc(N)ncc2cc1-c1c(Cl)cccc1Cl
[B] CN1CCN(CCCNc2ncc3cc(-c4c(Cl)cccc4Cl)c(N)nc3n2)CC1
Response body: label of entry with the larger IC50; valid values A , B . Answer with the label corresponding to your selection.
B
(B: 0.184 µM, A: 0.036 µM)

Ref: patent US5733913A
